From: PubChem BioAssay (EPA / NIEHS)

Read-out: Actin alpha 1 (ACTA1), ACTA1 (gene 58)
assay: BSK_MyoF_ACTA1: BioMAP Diversity Plus: MyoF Assay for Actin alpha 1 (ACTA1) Biomarker Activity (AID 2284244)
conditionInfo: primary human lung fibroblasts
Calls of active or inactive are those of the source. The calls were made as follows: active = hit-call score of the fitted dose curve at least 0.9, where 1 is the maximum; inactive = score below 0.9.
One label from this list, please: yes (1) (active), no (0) (inactive)

Brc1nc2ccccc2s1 ... no (0)
CCOC(C=C(C)CCC=C(C)C)OCC ... yes (1)
O=S(=O)(O)CCC(F)(F)C(F)(F)C(F)(F)C(F)(F)C(F)(F)C(F)(F)C(F)(F)C(F)(F)F ... no (0)
O=C(c1ccccc1)c1ccc(O)cc1O ... no (0)

For this compound, state the assay outcome: `O=C=Nc1cccc2c(N=C=O)cccc12`
no (0)
